molecular target: T1, human GFRα3 expressed with a C-terminal myc-myc-hexahistidine tag (human, UniProt O60609 32-374, biotinylated (sites not given) in ELISA format 2 and in the Octet cross-competition; not in SPR); test: Octet cross-competition; biotin-hGFRα3-mmH pre-saturated with first antibody H4H2357S
T1 construct: also called hGFRα3-mmh; hGFRα3-mmH
T1 sequence (O60609 other isoform, or with tags, fused parts or gaps limits assumed): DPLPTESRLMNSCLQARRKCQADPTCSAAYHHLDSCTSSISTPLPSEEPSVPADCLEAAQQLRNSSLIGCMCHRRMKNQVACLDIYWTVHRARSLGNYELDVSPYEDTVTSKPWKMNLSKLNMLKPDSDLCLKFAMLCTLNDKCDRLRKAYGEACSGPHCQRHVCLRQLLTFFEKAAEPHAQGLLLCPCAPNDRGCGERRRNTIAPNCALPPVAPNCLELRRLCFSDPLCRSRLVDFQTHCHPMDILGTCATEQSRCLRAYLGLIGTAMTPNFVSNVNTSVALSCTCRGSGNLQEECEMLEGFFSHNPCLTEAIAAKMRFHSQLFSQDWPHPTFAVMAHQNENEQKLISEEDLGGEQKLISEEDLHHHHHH
Here, each record is paired with measured binding response of second antibody (nm) data.
The reply should contain only the number, in nm.

Worked cases, binding response of second antibody (nm) given:
Exercise: Please indicate binding response of second antibody (nm) recorded for H4H2292S (antibody, human IgG4, V domains shown, human IgG4 Fc (H4H)) VH: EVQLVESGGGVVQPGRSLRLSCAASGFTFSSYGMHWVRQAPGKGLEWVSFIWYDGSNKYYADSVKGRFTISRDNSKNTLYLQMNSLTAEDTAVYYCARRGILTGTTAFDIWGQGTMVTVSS VL: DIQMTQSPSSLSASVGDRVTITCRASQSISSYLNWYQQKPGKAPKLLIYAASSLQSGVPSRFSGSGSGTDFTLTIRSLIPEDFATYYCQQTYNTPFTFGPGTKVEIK
Key: 1.92

Exercise: Look up and state reported binding response of second antibody (nm) for H4H2350P (antibody, human IgG4, V domains shown, human IgG4 Fc (H4H)) VH: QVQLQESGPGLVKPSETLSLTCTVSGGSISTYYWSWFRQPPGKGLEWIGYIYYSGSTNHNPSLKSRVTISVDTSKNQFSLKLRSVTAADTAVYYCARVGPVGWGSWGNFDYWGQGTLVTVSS VL: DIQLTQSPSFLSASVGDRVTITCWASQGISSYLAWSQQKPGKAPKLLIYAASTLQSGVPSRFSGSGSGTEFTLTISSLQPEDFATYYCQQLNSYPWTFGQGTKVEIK
Key: 1.35

Okay, now this binder:
Exercise: Return the recorded binding response of second antibody (nm) value; entry: H4H2352S (antibody, human IgG4, V domains shown, human IgG4 Fc (H4H); also called H4H2352S-1) VH: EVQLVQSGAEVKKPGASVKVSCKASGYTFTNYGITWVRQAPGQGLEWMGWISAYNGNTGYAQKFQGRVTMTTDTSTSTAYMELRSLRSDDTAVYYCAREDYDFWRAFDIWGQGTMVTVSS VL: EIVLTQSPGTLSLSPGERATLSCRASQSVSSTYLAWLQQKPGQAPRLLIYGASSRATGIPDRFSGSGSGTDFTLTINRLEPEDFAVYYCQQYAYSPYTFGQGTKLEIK
Key: 2

Each recorded value in this set is attributed to patent US20140056903A1.
